Test system: RAW-Dual
Experiment: NF-kB SEAP reporter activity, fold change vs agonist alone; cytotoxicity flag (confluency mask): cytotoxic (confluency <70% of control); higher = enhanced NF-kB activity
Conditions: agonist: LPS (TLR4) 0.1 ug/mL
The full ranking holds about 2,900 compounds; the median of “NF-kB SEAP reporter activity, fold change vs agonist alone” is about 0.99, and the highest 2% start at about 2.6. This is one part of a sample in which the highest values are shown more often than they occur.
value-type: NF-kB SEAP reporter activity
Form rule: numeric answer, no unit written next to it.

Study these solved cases before continuing.
compound	system	NF-kB SEAP reporter activity
Cc1cnc(Nc2ccc(OCCN3CCCC3)cc2)nc1Nc1cccc(S(=O)(=O)NC(C)(C)C)c1 (library stock concentration (final ~1000-fold dilution): 10 mM)	RAW-Dual	4.34
CC(=O)c1ccc2c(c1)c1cc(C(C)=O)ccc1n2CCNC(C)C.Cl (library stock concentration (final ~1000-fold dilution): 10 mM)	RAW-Dual	0.329

Prompt line: Looking for the measured NF-kB SEAP reporter activity of CNC1CCC(c2ccc(Cl)c(Cl)c2)c2ccccc21.Cl (stereo not given) (library stock concentration (final ~1000-fold dilution): 10 mM) , can you help?
Response line: 0.879

Prompt line: Can you handle C=CCn1c(=O)c2cnc(Nc3ccc(N4CCN(C)CC4)cc3)nc2n1-c1cccc(C(C)(C)O)n1 (library stock concentration (final ~1000-fold dilution): 10 mM) next?
Response line: 0.933

Prompt line: Repeat with O=C(Oc1cccc(F)c1OC(=O)c1cccc(O)c1)c1cccc(O)c1 (library stock concentration (final ~1000-fold dilution): 10 mM)
Response line: 1.21
